# Test system: NCI-H522 lung
# Measurement Description: NCI-60 one-dose screen, 48 h (100 = growth as untreated, 0 = no growth, -100 = all killed)
# Particulars: 10 µM unless noted
About 83,000 compounds went through this panel and 20% of them were active in at least one assay; those are over-represented in the sample as a whole.
Recorded measurements of growth, one per entry
Response body: numeric value in %, unit text excluded.

• CS(=O)(=O)c1ccc(-c2nn(-c3ccccc3)cc2/C=C/C(=O)c2ccc(Br)cc2)cc1 = 82.6
• O=C(Nc1cc(Cl)cc(Cl)c1)Nc1ccc2oc(=O)ccc2c1 = 6.05
• COC[C@@]1(C)CC[C@]2(C)CC[C@]3(C)C(=CC[C@@H]4[C@@]5(C)CCCNC(C)(C)[C@@H]5CC[C@]43C)C2C1 (stereo not given in full) = 76.7
• Cc1cc(=O)n2nc(-c3cn(C)c4ccc(Cl)cc34)sc2n1 = 89.2

# context switch: different compound, same growth
Req: Look up growth: CN(c1ccc(Cl)cc1)S(=O)(=O)c1ccc(-c2cnc(C3CC3)o2)cc1
Resp: 30.8

====

Recorded measurements of growth, one per entry
# Tested on: RXF 393 renal
# Measurement Description: NCI-60 one-dose screen, 48 h (100 = growth as untreated, 0 = no growth, -100 = all killed)
# Particulars: 10 µM unless noted
About 83,000 compounds went through this panel and 20% of them were active in at least one assay; those are over-represented in the sample as a whole. The source made the active and inactive calls. How the source made its calls: active means growth percent below 10; inactive means the rest.

- O=C(Nc1cc(F)cc2cccnc12)c1cnc(N2CCOCC2)cn1: 59.8% (inactive)
- COc1cc(NC2=C(Cl)C(=O)c3nc(C)ccc3C2=O)cc(OC)c1: -97.2% (active)
- Cc1[nH]nc2ccc(-c3nc4cnc(N5CCN(C)CC5)cn4c3Nc3ccc(F)cc3Br)cc12: 63.3% (inactive)
- COc1ccc(-c2nnc(/N=C3/C(=O)Nc4ccc(Br)cc43)o2)cc1: 112% (inactive)
- O=C(c1cccc(F)c1)n1ccc2cc(NC(=S)Nc3cccnc3)ccc21: 108% (inactive)

Req: Look up growth: CCOc1ccc2nc(NC(=O)Nc3ccccc3C)sc2c1
Resp: 49.5% (inactive)

Req: Okay, and O=C(Nc1ccc(Cl)cc1)Nc1nc2ccc([N+](=O)[O-])cc2s1 ?
Resp: -37.2% (active)

Req: Okay, and C/C(=C(/c1ccc(O)cc1)c1ccc(OCCN2CCCCCC2)cc1)c1ccccc1 ?
Resp: 26% (inactive)

Req: Okay, and CS(=O)(=O)c1ccc2c(c1)c1c(n2Cc2ccc(Cl)cc2)CCCC1 ?
Resp: 73.4% (inactive)

Req: Okay, and COc1ccc([C@H]2c3[nH]c4ccccc4c3C[C@@H]3C(=O)N(C4CCN(Cc5ccccc5)CC4)CC(=O)N23)c(OC)c1 ?
Resp: 41.9% (inactive)

====

# System: ACHN renal
# Measurement Description: NCI-60 one-dose screen, 48 h
# Particulars: 10 µM unless noted
About 83,000 compounds went through this panel and 20% of them were active in at least one assay; those are over-represented in the sample as a whole. Activity calls are given as the source filed them. The calls were made as follows: active = growth percent below 10; inactive = the rest.
Choose one outcome from this list and give only that: class 1 = active, class 0 = inactive

Req: Identify the outcome logged in this assay for the molecule shown: O=C(/C=C1\C=CN(CCCCCCF)c2ccccc21)n1ccc2ccccc21
Resp: class 0

Req: Okay, and O=C(O)CNS(=O)(=O)c1ccc(Oc2ccc(S(=O)(=O)NCC(=O)O)cc2)cc1 ?
Resp: class 0

Req: Okay, and O=C1Nc2cc(OC(F)(F)F)ccc2Oc2ccc(-c3ccnc(N4CC[C@H](O)C4)c3)cc21 ?
Resp: class 0

Req: Okay, and O=C1c2c(c3c4cc(Br)ccc4[nH]c3c3ccc4ccccc4c23)C(=O)N1CCN1CCCCC1 ?
Resp: class 0

Req: Okay, and O=C(N/N=C\c1ccc(Cl)cc1)c1ccc2nc(-c3ccc(Br)cc3)[nH]c2c1 ?
Resp: class 1

====

# Tested on: UACC-257 melanoma
# Measurement Description: NCI-60 one-dose screen, 48 h (100 = growth as untreated, 0 = no growth, -100 = all killed)
# Particulars: 10 µM
About 83,000 compounds went through this panel and 20% of them were active in at least one assay; those are over-represented in the sample as a whole.
Readout Kind: growth (%)
Response body: numeric value in %, unit text excluded.

Observe how each entry below is paired with its result.
* CCOC(=O)c1c(NCC(=O)Nc2cccc(Cl)c2)sc2c1CCCC2 | 99.1
* COc1cc([C@H]2OC[C@H]3[C@@H]2CO[C@@H]3c2ccc(O)c(OC)c2)ccc1O | 113
* CC(=O)Nc1nc2c(s1)C1=CC[C@H]3[C@@H]4CC[C@H](C(C)=O)[C@@]4(C)CC[C@@H]3[C@@]1(C)CC2 | 73.2
* O=C(CCCCCCN1CC(=O)N2[C@@H](c3cc(F)cc(F)c3)c3[nH]c4ccccc4c3C[C@H]2C1=O)NO | 44.1
* O=C1c2c(c3c4cccnc4[nH]c3c3ccc4ccccc4c23)C(=O)N1CCN1CCNCC1 | 106

Req: Look up growth: CN(C)c1ccc(/C=N/Nc2nc(N/N=C/c3ccc(N(C)C)cc3)nc(N3CCOCC3)n2)cc1
Resp: 103

Req: Okay, and CCN1C(=O)N(CC)C2SC(N/N=C/c3ccccc3F)=NC21 (stereo not drawn) ?
Resp: 61

Req: Okay, and Cc1ccc(-c2cc(-c3ccc(N(C)C)cc3)n3c(n2)nc2ccccc23)cc1 ?
Resp: 65.8

Req: Okay, and O=C(Nc1cc(Cl)cc(Cl)c1)Nc1nc2ccc([N+](=O)[O-])cc2s1 ?
Resp: -14.5

Req: Okay, and COc1cc(C2=NN(C(C)=O)C(c3ccc(N4CCOCC4)cc3)C2)cc(OC)c1OC (stereo not drawn) ?
Resp: 103

Req: Okay, and CC1(C)CC[C@]2(C(=O)O)CC[C@]3(C)C(=CCC4[C@@]5(C)C[C@@H](O)[C@@H]6OC(c7cccc([N+](=O)[O-])c7)OC[C@@]6(C)C5CC[C@]43C)C2C1 (stereo partly drawn) ?
Resp: 103

Req: Okay, and C=CCn1c(SCC(=O)c2ccc(OC)cc2)nnc1-c1ccc(OC)cc1 ?
Resp: 96.8

====

# Test system: MDA-MB-435 melanoma
# Measurement Description: NCI-60 one-dose screen, 48 h
# Particulars: 10 µM unless noted
# Description: Growth inhibition of the MDA-MB-435 human Melanoma tumor cell line is measured as a screen for anti-cancer activity. Cells are grown in 96 well plates and exposed to the test compound for 48 hours. Compounds are tested at a single concentration, which is 10^-5 M for most compounds. The reported endpoint is percent growth (GI% or GIPRCNT), where numbers from 0 - 100% represent growth inhibition, and numbers from -100% - 0 represent cell death. […]
The panel holds about 83,000 compounds, 20% with a hit somewhere; the sample as a whole holds those more often. Calls of active or inactive are those of the source. How the source made its calls: active means growth percent below 10; inactive means the rest.
Choose one outcome from this list and give only that: T (active), F (inactive)

Solved cases below.
• C(=C(\C1=NCCN1)n1cnc2ccccc21)/c1cccc2ccccc12 = F
• CN(C)C(=O)c1ccccc1-n1cnc2ccccc2c1=O = F
• COc1cc([C@H]2OC[C@H]3[C@@H]2CO[C@@H]3c2ccc(O)c(OC)c2)ccc1O = F
• COc1cc(OC)c(S(N)(=O)=O)cc1C(=O)/C=C/c1ccccc1 = T
• O=S(=O)(Nc1ccc(-n2cnc3cc(-c4ccc(O)cc4)ccc32)cc1)C1CC1 = F

Req: Identify the outcome logged in this assay for the molecule shown: c1cncc(-c2cn3nc(-c4c[nH]c5ccccc45)sc3n2)c1
Resp: T

Req: Okay, and O=C(CCCCCCN1CC(=O)N2[C@@H](c3cccc(Br)c3)c3[nH]c4ccccc4c3C[C@H]2C1=O)NO ?
Resp: F

Req: Okay, and O=C1c2c(c3c4cc(Br)ccc4[nH]c3c3ccc4ccccc4c23)C(=O)N1CCN1CCNCC1 ?
Resp: F

====

# Tested on: SF-295 CNS
# Measurement Description: NCI-60 one-dose screen, 48 h
# Particulars: 10 µM unless noted
The panel holds about 83,000 compounds, 20% with a hit somewhere; the sample as a whole holds those more often. The source made the active and inactive calls. Rule for the calls: active = growth percent below 10; inactive = the rest.
Choose one outcome from this list and give only that: 1 (yes) for active, 0 (no) for inactive

Solved cases below.
- Cn1cc2c(c1)-c1c(sc3nc(-c4ccc(NC(=O)Nc5cc(C(C)(C)C)on5)cc4)cn13)CC2: 1 (yes)
- CCNC(=O)Oc1ccc(/C(=C(/C)c2ccc(Cl)cc2)c2ccc(OCCN(C)C)cc2)cc1: 0 (no)
- CN1C(=O)/C(=C/C=C/c2ccco2)SC1=S: 0 (no)

Req: Identify the outcome logged in this assay for the compound shown: N#C/C(=C\c1ccc(Cl)cc1Cl)C(N)=O
Resp: 0 (no)

Req: Okay, and Cc1cc(-c2ccc3nc(N)sc3c2)nc2ccc3[nH]ncc3c12 ?
Resp: 0 (no)

Req: Okay, and CC(C)(C)n1nnnc1C(Nc1nccs1)c1cc2cccc3ccc4cccc1c4c32 (stereo not given) ?
Resp: 0 (no)
